Test: Cytotoxicity against human SH-SY5Y cells assessed as cell viability at 30 uM after 48 hrs by MTT assay relative to control
Assay type: cell-based
Conditions: read-out: Activity
Listing: viability at 48 h, 30 µM of selected compounds
Dear colleague, please return just the value in %, with no unit written.

Below, 3 compounds whose answers are already recorded.
| COMPOUND | READOUT_UNIT | VALUE_MEASURED |
| --- | --- | --- |
| O=C1NC(=O)C2C3c4ccccc4C(c4ccc(Cl)cc43)C12 (centres undefined) | % | 97 |
| O=C1NC(=O)C2C1C1(Cl)c3ccccc3C2(Cl)c2ccccc21 (centres undefined) | % | 92 |
| O=C1NC(=O)C2C3c4ccccc4C(c4cccc(Cl)c43)C12 (centres undefined) | % | 93 |

Now take the following compound into account.
So what does the record say about viability at 48 h, 30 µM for CCCCCCCNC(=O)C12c3ccccc3C(c3ccccc31)C1C(=O)NC(=O)C12 (centres undefined) ?
87

###

Activity for assorted compounds
Tested on: Left cardiac atrium
Assay: Negative inotropic activity in guinea pig left atrium assessed as decrease in developed tension at 5 x 10^-5 M relative to control
Format: ADME, tissue-based, Cavia porcellus
Set-up: scale not given: the % may be the effect or the level left
Settings: 50 µM
Write it as a number; the unit % goes unstated.

The following compounds have reported results that may help.
| COMPOUND | READOUT_UNIT | Activity |
| --- | --- | --- |
| CC(=O)Nc1ccc2c(c1)C1c3ccccc3C2C2C(=O)NC(=O)C12 (stereo unspecified) | % | 79 |
| CC(=O)c1ccc2c(c1)C1c3ccccc3C2C2C(=O)NC(=O)C12 (stereo unspecified) | % | 11 |
| Nc1cccc2c1C1c3ccccc3C2C2C(=O)NC(=O)C12 (stereo unspecified) | % | 82 |

Which measured Activity value corresponds to Nc1ccc2c(c1)C1c3ccccc3C2C2C(=O)NC(=O)C12 (stereo unspecified) ?
74

# iterate: O=C1NC(=O)C2C1C1c3ccccc3C2(/C=N/Cc2ccccc2)c2ccccc21 (stereo unspecified)
75

Please do the same for O=C1NC(=O)C2C1C1(Cl)c3ccccc3C2(Cl)c2ccccc21 (stereo unspecified) as well.
97

###

Tested on: Left cardiac atrium
Assay: Negative inotropic activity in guinea pig left atrium assessed as decrease in developed tension
Format: ADME, tissue-based
Settings: Cavia porcellus
Recorded pEC50 by entry
Schema: pEC50 number; meaning minus log10 of the concentration expressed in molar units.

Completed entries (count: 5):
| COMPOUND | VALUE_MEASURED |
| --- | --- |
| O=C1NC(=O)C2C1C1c3ccccc3C2(/C=N/Cc2ccccc2)c2ccccc21 (centres undefined) | 6.07 |
| Nc1cccc2c1C1c3ccccc3C2C2C(=O)NC(=O)C12 (centres undefined) | 5.72 |
| CC(=O)Nc1cccc2c1C1c3ccccc3C2C2C(=O)NC(=O)C12 (centres undefined) | 6.49 |
| O=C1NC(=O)C2C3c4ccccc4C(c4ccc(Cl)cc43)C12 (centres undefined) | 6.37 |
| CCCCCCCNC(=O)C12c3ccccc3C(c3ccccc31)C1C(=O)NC(=O)C12 (centres undefined) | 5.72 |

// query pEC50 value for entry O=C1NC(=O)C2C3c4ccccc4C(c4cccc(Cl)c43)C12 (centres undefined)
6.06

What do we get for CC(=O)Nc1ccc2c(c1)C1c3ccccc3C2C2C(=O)NC(=O)C12 (centres undefined) ?
5.44

Next entry: Nc1ccc2c(c1)C1c3ccccc3C2C2C(=O)NC(=O)C12 (centres undefined)
5.83

Also O=C1NC(=O)C2C1C1(Cl)c3ccccc3C2(Cl)c2ccccc21 (centres undefined) ?
6.66

###

Test system: Right cardiac atrium
Experiment: Negative chronotropic activity in guinea pig spontaneously beating right atrium assessed as decrease in atrial rate at 10^-5 M
Type: ADME, tissue-based, Cavia porcellus
Design: scale not given: the % may be the effect or the level left
Settings: 10 µM
# key: entry, value: Activity
Report the figure in % without appending any unit label.

Example compounds with recorded Activity:
| COMPOUND | READOUT_UNIT | Activity |
| --- | --- | --- |
| O=C1NC(=O)C2C3c4ccccc4C(c4cccc(Cl)c43)C12 (stereo not given) | % | 37 |
| O=C1NC(=O)C2C3c4ccccc4C(c4ccc(Cl)cc43)C12 (stereo not given) | % | 47 |
| CC(=O)c1ccc2c(c1)C1c3ccccc3C2C2C(=O)NC(=O)C12 (stereo not given) | % | 33 |
| Nc1cccc2c1C1c3ccccc3C2C2C(=O)NC(=O)C12 (stereo not given) | % | 42 |

Now examine the next entry.
Using the record for CCCCCCCNC(=O)C12c3ccccc3C(c3ccccc31)C1C(=O)NC(=O)C12 (stereo not given) , report its Activity.
45

###

Tested on: Aorta
Assay: Inhibition of calcium-induced contraction in K+-depolarized guinea pig aortic strips at 5 x 10^-5 M relative to control
Format: tissue-based
Conditions: Cavia porcellus
MEASUREMENT_LABEL: inhibition at 50 µM (%)
Just the number in %, nothing appended.

Example cases with answers are listed next.
| COMPOUND | inhibition at 50 µM (%) |
| --- | --- |
| CCCCCCCNC(=O)C12c3ccccc3C(c3ccccc31)C1C(=O)NC(=O)C12 (stereo not drawn) | 6 |
| Nc1cccc2c1C1c3ccccc3C2C2C(=O)NC(=O)C12 (stereo not drawn) | 8 |
| CC(=O)Nc1cccc2c1C1c3ccccc3C2C2C(=O)NC(=O)C12 (stereo not drawn) | 6 |
| O=C1NC(=O)C2C3c4ccccc4C(c4cccc(Cl)c43)C12 (stereo not drawn) | 9 |
| O=C1NC(=O)C2C3c4ccccc4C(c4ccc(Cl)cc43)C12 (stereo not drawn) | 21 |

Can you share its inhibition at 50 µM? I mean this compound: CC(=O)Nc1ccc2c(c1)C1c3ccccc3C2C2C(=O)NC(=O)C12 (stereo not drawn)
10

Input O=C1NC(=O)C2C1C1(Cl)c3ccccc3C2(Cl)c2ccccc21 (stereo not drawn)
7

Try this compound too: CC(=O)c1ccc2c(c1)C1c3ccccc3C2C2C(=O)NC(=O)C12 (stereo not drawn)
18

###

Documented viability at 48 h, 10 µM across a set of molecules
Test: Cytotoxicity against human SH-SY5Y cells assessed as cell viability at 10 uM after 48 hrs by MTT assay relative to control
Format: cell-based
Conditions: read-out: Activity
Quick reminder: number only, in %, skip the unit.

// below: answered molecules
| MOLECULE | MEASUREMENT_LABEL | VALUE_MEASURED |
| --- | --- | --- |
| O=C1NC(=O)C2C3c4ccccc4C(c4ccc(Cl)cc43)C12 (centres undefined) | viability at 48 h, 10 µM | 91 |
| O=C1NC(=O)C2C3c4ccccc4C(c4cccc(Cl)c43)C12 (centres undefined) | viability at 48 h, 10 µM | 92 |

Can you share its viability at 48 h, 10 µM? I mean this molecule: CCCCCCCNC(=O)C12c3ccccc3C(c3ccccc31)C1C(=O)NC(=O)C12 (centres undefined)
85

Further, for O=C1NC(=O)C2C1C1(Cl)c3ccccc3C2(Cl)c2ccccc21 (centres undefined) ?
95

###

Tested on: Right cardiac atrium
Test: Negative inotropic activity in guinea pig spontaneously beating right atrium assessed as decrease in developed tension at 5 x 10^-5 M
Type: ADME, tissue-based, Cavia porcellus
Parameters: scale not given: the % may be the effect or the level left
Details: 50 µM
Readings of Activity for the listed molecules
Provide only the numeric value, understood in %.

| MOLECULE | MEASUREMENT_LABEL | VALUE_MEASURED |
| --- | --- | --- |
| CC(=O)Nc1ccc2c(c1)C1c3ccccc3C2C2C(=O)NC(=O)C12 (stereo unspecified) | Activity | 93 |
| Nc1cccc2c1C1c3ccccc3C2C2C(=O)NC(=O)C12 (stereo unspecified) | Activity | 92 |
| CC(=O)Nc1cccc2c1C1c3ccccc3C2C2C(=O)NC(=O)C12 (stereo unspecified) | Activity | 34 |

Item Nc1ccc2c(c1)C1c3ccccc3C2C2C(=O)NC(=O)C12 (stereo unspecified) has what recorded Activity?
79

What about this molecule? O=C1NC(=O)C2C1C1c3ccccc3C2(/C=N/Cc2ccccc2)c2ccccc21 (stereo unspecified)
85

Check O=C1NC(=O)C2C1C1(Cl)c3ccccc3C2(Cl)c2ccccc21 (stereo unspecified) too.
97

###

Overview of recorded pIC50 for various compounds
Target: Voltage-gated calcium channel
Assay: Inhibition of K+-induced voltage gated calcium channel opening in human SH-SY5Y cells assessed as decrease in Ca2+ level after 10 mins by Fluo-4 dye-based fluorescence assay
Give only the number. pIC50 is defined as minus log10 of concentration in molar units.

Consider the following illustrative entries.
| COMPOUND | MEASURED_ON | VALUE_MEASURED |
| --- | --- | --- |
| CCCCCCCNC(=O)C12c3ccccc3C(c3ccccc31)C1C(=O)NC(=O)C12 (stereo not given) | Voltage-gated calcium channel | 5.05 |
| O=C1NC(=O)C2C1C1(Cl)c3ccccc3C2(Cl)c2ccccc21 (stereo not given) | Voltage-gated calcium channel | 4.82 |
| O=C1NC(=O)C2C3c4ccccc4C(c4ccc(Cl)cc43)C12 (stereo not given) | Voltage-gated calcium channel | 4.82 |
| O=C1NC(=O)C2C3c4ccccc4C(c4cccc(Cl)c43)C12 (stereo not given) | Voltage-gated calcium channel | 4.96 |

For COCCOC(=O)C1=C(C)NC(C)=C(C(=O)OC(C)C)C1c1cccc([N+](=O)[O-])c1 (stereo not given) , what is its reported pIC50?
4.85
